Listed compounds paired with reported composite z-score
TEST_PROTOCOL: compound binding in COS7 lysate, probe aLAP1, primary screen, cell lysate, small-molecule microarray (AID 1124);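 note: lysate comes from COS7 cells expressing LAP1 and is applied at 0.3 µg/mL; score merges spot fluorescence near 667 nm with signal-to-noise over triplicate slides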
CONDITION: probe aLAP1, fluorescence, higher = more signal

CHEMICAL_STRUCTURE	composite z-score
COC(=O)C(CC#Cc1ccc2c(c1)[C@]1(C(=O)N2)[C@H](C(N)=O)[C@H]2C(=O)O[C@H](c3ccccc3)[C@H](c3ccccc3)N2[C@@H]1c1ccccc1OCCO)C(=O)OC	0.782
C=C(CCCC)/C(=C/C[C@@H](OC(C)=O)c1ccc(OCCO)cc1)c1cc(C(=O)OC)ccc1OC	0.155
C[N+](C)(C)CCCC[C@@H]1NC(=O)[C@H]2C[C@@H](C(=O)O)[C@@H](c3ccc(O)cc3)N2C1=O	0.606
CCOC(=O)C[C@H]1[C@H](OC(=O)c2ccccc2-c2ccccc2)[C@@H](NC(=O)CC(C)C)c2cc(OCCCO)ccc2N1C(=O)c1ccccc1	-0.161
CO[C@H]1O[C@H](CO)[C@@H](OC(=O)CCc2ccccc2)[C@@H]2OC(=O)[C@@H](Cc3ccc4ccccc4c3)C/C=C/C[C@H](Cc3ccc4ccccc4c3)C(=O)O[C@@H]12	0.273
CCOC(=O)C[C@H]1[C@H](OC(=O)c2cc3ccccc3oc2=O)[C@@H](NC(=O)Cc2ccc(OC)cc2)c2cc(OCCCO)ccc2N1C(=O)Cc1ccc(OC)cc1	-0.0915

====

TEST_PROTOCOL: adipocyte viability effects, profiling panel, cell-based, 3T3-L1 adipocytes, calcein-AM fluorescence, 48 h, basal (AID 1163)
CONDITION: 3T3-L1 adipocytes viability, higher = more signal
Each record is given TRUE if its reported z-score is strictly below 0.09. Records at or above 0.09 are given FALSE.

COMPOUND	CLASS_LABEL
COCCCNC(=O)[C@@]1(Cc2ccccc2I)c2ccccc2C(=O)N(Cc2ccccc2OC)[C@H]1c1ccc(CO)cc1	TRUE
O=C1NC(=O)C2C1C=CC(C(O)C(O)CO)N2Nc1ccccn1 (stereo unspecified)	TRUE
COC(=O)C(CC#Cc1ccc2c(c1)[C@]1(C(=O)N2)[C@H](C(=O)N2CCN(c3ncccn3)CC2)[C@H]2C(=O)O[C@H](c3ccccc3)[C@H](c3ccccc3)N2[C@@H]1c1ccc(O)cc1)C(=O)OC	TRUE
CC(CO)N1C(=O)[C@@H]2[C@H]3C(=O)OCC=C[C@H]3OC23C=CCN(c2ccc4ccccc4c2)C(=O)[C@@H]13 (stereo partly specified)	TRUE
COc1cc(Cc2cc3c(c(-c4ccccc4)n2)[Si](C(C)C)(C(C)C)OC3)cc(OC)c1OC	FALSE
CCCC=C(CCC)[C@@H](NC(=O)c1ccc(C(=O)OC)cc1)c1ccc(C(=O)OC)cc1	TRUE
COCCCNC(=O)[C@@]1(CCC(=O)OC(C)(C)C)N=C(c2ccc(OCCCO)cc2)O[C@H]1c1ccccc1	TRUE
COC(=O)c1ccc(OC)c(/C=C\CC(OC(=O)c2ccncc2)c2ccccc2)c1 (stereo unspecified)	TRUE
COc1cc2c(cc1O)C(C)N(Cc1sc3ccccc3c1Cl)CC2 (stereo unspecified)	TRUE
Cc1ccc(S[C@]2(C(=O)NCc3ccccc3)CC(=O)N(Cc3ccccc3Cl)[C@@H]2c2ccc(CO)cc2)cc1	FALSE
COC(=O)C[C@H]1O[C@]2(C(=O)N(C)c3ccccc32)[C@@H](C)[C@@H]1[Si](C)(C)c1ccccc1	FALSE
COc1cccc(C)c1NC(=O)O[C@H]1[C@H](OC(=O)Nc2ccccc2)[C@@H](OC(=O)Nc2ccccc2)[C@@H](OC)O[C@@H]1CO	FALSE
COc1ccc(CCNC(=O)[C@@]2(c3ccc([N+](=O)[O-])cc3)CC(=O)N(C3CCCCC3)[C@@H]2c2ccc(CO)cc2I)cc1	FALSE
O=C1NC(=O)C2C1C=CC(C(O)C(c1ccccc1)c1ccccc1)N2Nc1ccccn1 (stereo unspecified)	TRUE
CCCCN1CC=CC23O[C@@H]4/C=C\CCCOC(=O)C4[C@H]2C(=O)N(CCCCCCO)[C@@H]3C1=O (stereo partly specified)	FALSE

====

Listed compounds paired with reported composite z-score
TEST_PROTOCOL: small-molecule microarray binders of probe aWnt5a, primary screen, biochemical, biotinylated probe, 635/667 nm fluorescence (AID 1113);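 note: score merges 667 nm fluorescence intensity with signal-to-noise per printed feature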
CONDITION: higher = more signal
OBSERVABLE: composite z-score

> print(dat)
                                   compound         observable   result
1  O=C1c2ccccc2[C@@]2(Cc3ccccc3N(CC(F)(F)F)C2=O)[C@H](c2ccc(CO)cc2)N1Cc1ccccc1  composite z-score   0.0371
2  O=C1C2C=CC(C(O)c3ccccn3)N(Nc3ccc([N+](=O)[O-])cc3)C2C(=O)N1c1ccccc1 (stereo not drawn)  composite z-score  -0.0799
3  C[C@]1(C(=O)NC2CC2)c2ccccc2C(=O)N(Cc2cc(F)cc(C(F)(F)F)c2)[C@H]1c1ccc(CO)cc1  composite z-score   -0.187

====

Listed compounds paired with reported composite z-score
System: XIP peptide (Xip251-270)
TEST_PROTOCOL: small-molecule binders of XIP peptide, primary screen, biochemical, small-molecule microarray, fluorescence 635/667 nm, 0.5 µg/mL protein (AID 1183)
CONDITION: small-molecule microarray binding, fluorescence 635 nm; higher = more signal

COMPOUND	composite z-score
COC(=O)C1=CC(c2ccc(CO)cc2)=CC(C2CC2)N(Cc2cc3c(cc2Br)OCO3)C=C1C(=O)OC (centres undefined)	0.859
CC(C)c1ccc(NN2C(C(O)C(C)c3ccccc3)C=CC3C(=O)N(c4ccccc4)C(=O)C32)cc1 (centres undefined)	0.77
COC(=O)[C@@]1(Cc2ccc(F)cc2)[C@H]2c3cc(C(=O)N(C)C)n(CCF)c3C[C@H]2CN1C(=O)c1ccccc1	0.779
C=C(CC1([C@@H](NP(=O)(c2ccccc2)c2ccccc2)[C@H]2C[C@@H]2CCCC)CC1)c1cccc(OC)c1	-0.207
C=CCNC(=O)[C@H]1[C@@H]2C(=O)O[C@@H](c3ccccc3)[C@@H](c3ccccc3)N2[C@@H](c2ccc(OCCO)cc2)[C@]12C(=O)N(C(=O)OCCOC)c1ccc(C#CCC(C(=O)OC)C(=O)OC)cc12	0.734
COC(=O)C1=CC(CCCO)=CC(c2ccc(CN3CCCC3)cc2)N(C)C=C1C(=O)OC (centres undefined)	0.873
[N-]=[N+]=Nc1ccccc1C[C@]1(C(=O)N2CCCCC2)N=C(c2ccc(OCCCO)cc2)O[C@H]1c1ccccc1	0.758
COCCCNC(=O)[C@@]1(c2ccc([N+](=O)[O-])cc2)CC(=O)N(C2CCCCC2)[C@@H]1c1ccc(CO)cc1I	0.728
CCCCCCc1nc(Cc2cc(OC)c(OC)c(OC)c2)c(C)c2c1[Si](C(C)C)(C(C)C)OC2	0.0092
COc1cccc(C)c1NC(=O)O[C@H]1[C@H](OC(=O)Nc2ccccc2)[C@@H](OC(=O)Nc2ccccc2)[C@@H](OC)O[C@@H]1CO	0.912
C=C(/C=C\CNS(=O)(=O)c1ccc(C)cc1)[C@H](O)[C@H]1CCCN1S(=O)(=O)c1ccccc1[N+](=O)[O-]	-0.167
COC(=O)C(CC#Cc1ccc2c(c1)[C@]1(C(=O)N2)[C@H](c2ccccc2OCCO)N2[C@H](c3ccccc3)[C@H](c3ccccc3)OC(=O)[C@H]2[C@@H]1C(=O)N1CCN(c2ncccn2)CC1)C(=O)OC	0.539
C=C[C@H](C)[C@@H](OC(=O)Nc1ccc(SC)cc1)c1ccc(OCCO)cc1	-0.0208
C=CCC(OC(C)=O)[C@@H]1[C@@H](N(Cc2ccc(-c3ccccc3)cc2)C(=O)Cc2ccc(OC)cc2)c2cc(OCCCO)ccc2N1C(=O)Cc1ccc(OC)cc1 (some centres undefined)	-0.243

====

ASSAYED_TARGET: Alpha-bungarotoxin (Bungarus multicinctus)
TEST_PROTOCOL: alpha-bungarotoxin binders on microarray, profiling panel, artefact control for SMM control protein annotation, biochemical, small-molecule microarray, Alexa647 label, 635/667 nm fluorescence (AID 1117)
CONDITION: alpha-BTX-A647 binding fluorescence, higher = more signal
Listed compounds paired with reported composite z-score
OBSERVABLE: composite z-score

COMPOUND	RESULT
O=C1NC(=O)C2C1C=CC(C(O)C(O)CO)N2Nc1ccccn1 (centres undefined)	0.315
CC(C)C(=C=CC[C@H](O)c1cccc(OCCO)c1)C[C@H](O)c1ccccn1	-0.579
C=C(C)C1CN([C@H](CO)c2ccccc2)C(=O)/C1=C\c1ccccc1 (some centres undefined)	-0.173
O=C1OCCC/C=C\[C@H]2OC34C=CCN(Cc5ccccc5)C(=O)[C@H]3N(CCO)C(=O)[C@@H]4C12 (some centres undefined)	-1.06
O=C1OC[C@@H](c2ccccc2)n2cc(/C=C/c3ccccc3)cc21	0.45
O=C(NC1CC1)[C@@H]1c2ccccc2C(=O)N(C2CCCCC2)[C@H]1c1ccc(CO)cc1	1.5
CCCC=C(CCC)[C@@H](NC(=O)c1ccc(C(=O)OC)cc1)c1ccc(C(=O)OC)cc1	-0.037
CCCCN1CC=CC23O[C@@H]4/C=C\CCCOC(=O)C4[C@H]2C(=O)N(CCCCCCO)[C@@H]3C1=O (some centres undefined)	-1.09
[N-]=[N+]=NCc1ccccc1[C@H]1OC(c2ccc(OCCCO)cc2)=N[C@@]1(Cc1ccccc1N=[N+]=[N-])C(N)=O	1.03
COC(=O)C(CC#Cc1ccc2c(c1)[C@]1(C(=O)N2)[C@H](C(=O)NC[C@H](O)c2ccccc2)[C@H]2C(=O)O[C@H](c3ccccc3)[C@H](c3ccccc3)N2[C@@H]1c1ccc(O)cc1)C(=O)OC	-0.111
CC[C@H]1C2=C3C(CC[C@H]4C(OCc5ccc(F)cc5C(F)(F)F)OC[C@](C)([C@@H]34)N(C(=O)OC(C)(C)C)C2)C(COC(C)=O)C1COC(C)=O (some centres undefined)	0.729
CCCCC(=C=CC[C@@H](O)c1ccccc1OCCO)C[C@@H](O)c1ccccn1	0.888
COC(=O)[C@@]1(Cc2ccc(F)cc2)[C@H]2c3cc(C(=O)N4CCCC4)n(Cc4ccc(OC(F)(F)F)cc4)c3C[C@H]2CN1C(=O)c1ccccc1	-0.272
CCCCC(=C=CC[C@@H](O)c1ccc(OCCO)cc1)CCO	0.657
